B1: tRNA (parent)
chain: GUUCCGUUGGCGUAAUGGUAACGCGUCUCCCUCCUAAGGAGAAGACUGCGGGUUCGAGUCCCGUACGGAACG

variants of: B1; assay: yeast fitness relative to wild type (ratio to wild type); higher = fitter; tRNA-Arg(CCU), competitive growth, 37 C, YPD
Variants at the floor of the assay were thinned out.
yeast fitness values, listed per item
EXPERIMENTAL ENDPOINT: yeast fitness

BIOPOLYMER SEQUENCE: GUUCGGUUGGUGUGAUGGUAACGCCUCUGCCUCCUAAGGAGAAGACUGCGGGUUCGAGUCCCGUACGGAACG [C5G C11U A14G G25C C29G]
QUAL: ≤
QUANTITATIVE READOUT: 0.5

BIOPOLYMER SEQUENCE: GUUCCGUUGGUGUAAUGGUAACCCGUCUCCCUCCUAAGGAGAAGACUGCGGGUUCGAAUCCCGUACGGAUCG [C11U G23C G58A A70U]
QUAL: =
QUANTITATIVE READOUT: 0.541

BIOPOLYMER SEQUENCE: GUUCCGUUGCCGUAAUGGUUACGCGUCUCCCUCCUAAGGAGGAGACUGCGGGUUCGAGUGCCGUACGGAACG [G10C A20U A42G C60G]
QUAL: ≤
QUANTITATIVE READOUT: 0.5

BIOPOLYMER SEQUENCE: GUUCCGUUGGCGUACUGGUAACGCGUCUCCCUCCUAAGGAGACGACUGCGGGUUCGAAUCCCGUACGGAACG [A15C A43C G58A]
QUAL: ≤
QUANTITATIVE READOUT: 0.5

BIOPOLYMER SEQUENCE: GUUCCGUUGGCGUAAUGGUAACGCGUCUCCCUCCUAAGGAGAAGACUGCGGGUUCGGGUCCCGUCCGGAACG [A57G A65C]
QUAL: =
QUANTITATIVE READOUT: 0.919

BIOPOLYMER SEQUENCE: GUUCCGUUGGCGUAAUGGUAACGCGUCUCGCUCCUAAGGAGCAGACUGCGGGUUCGAGUCCCGUACGGAACG [C30G A42C]
QUAL: =
QUANTITATIVE READOUT: 0.631

BIOPOLYMER SEQUENCE: GUUCCGUUGGCAUAAUGGUAACGCGUCUCCCUCCUAAGGAGAAGACUGCGGGUUCGAGUCCCGCACGGAACG [G12A U64C]
QUAL: =
QUANTITATIVE READOUT: 0.921

BIOPOLYMER SEQUENCE: GAUCCGUUGGCGUAAUGGUCACGCGUCUCCCUCCUAAGGAGAAGACUGCGGGUUCGAGUCCCGUACGAAACG [U2A A20C G68A]
QUAL: =
QUANTITATIVE READOUT: 0.719

BIOPOLYMER SEQUENCE: GUUCCGAUGGCGUAAUGGUAACGCGUCUCCCUCAUAAGGAGAAGACUGCGGGUUCCAGUCCCGUACGCAACG [U7A C34A G56C G68C]
QUAL: ≤
QUANTITATIVE READOUT: 0.5

BIOPOLYMER SEQUENCE: GUUCCGUUGGCGUAAUGGUAACGCAUCUCCCUCCUAAGGAGAAGACUGCGGGUUAGAGUCCCGUACGGAACG [G25A C55A]
QUAL: =
QUANTITATIVE READOUT: 0.725

BIOPOLYMER SEQUENCE: GGUCCGUUGGCGUAAUGGUAACGCGUCUCCCUCCUAAGGAGAAGACUGCGAGUUCGACUCCCGUACGGAACG [U2G G51A G58C]
QUAL: =
QUANTITATIVE READOUT: 0.562

BIOPOLYMER SEQUENCE: GUUCCGUUGGCGUAGUGGUAACGCGUCUCCCUCCUAAGGAGAAGACUGGGGGUUCGAGUCCCGUAGCGAACG [A15G C49G C66G G67C]
QUAL: ≤
QUANTITATIVE READOUT: 0.5

BIOPOLYMER SEQUENCE: GUUCCAUUGGCGUAAUGGUAACGCGUCUCCCUCCUAAGGAGAAGACUCUGGGUUCGAGUCCCGUACGGAACG [G6A G48C C49U]
QUAL: =
QUANTITATIVE READOUT: 0.652

BIOPOLYMER SEQUENCE: GUUCCGUUGGCGUAAUGGUAACGCGUCACCCUCUUAAGGAGAAGACUGCGGGUUCGGGUCCCGUAUGGAACG [U28A C34U A57G C66U]
QUAL: ≤
QUANTITATIVE READOUT: 0.5

BIOPOLYMER SEQUENCE: GUUCCGUUGGCGUAAUGGUAACGCGUCUCCGUUCUAAGGAGAAGACUGCGGGCGAGAGUCCCGUACGGAACG [C31G C33U U53C U54G C55A]
QUAL: ≤
QUANTITATIVE READOUT: 0.5

BIOPOLYMER SEQUENCE: GUUCCGUUGGGGUAAUGGUAACGCGUCUCCCUCCUAAGGAGAAGACUGCGGGUUCGAGUCCCGUACGCAACG [C11G G68C]
QUAL: =
QUANTITATIVE READOUT: 0.597

BIOPOLYMER SEQUENCE: GUUCCGUUGGCGUAAUGGUAACGCGUCUCCCUCCUAAGGAGAAGACCGCGGGUUCGAUUCCCAUUCGGAACG [U47C G58U G63A A65U]
QUAL: ≤
QUANTITATIVE READOUT: 0.5

BIOPOLYMER SEQUENCE: GUUCGGUUGGCGUAAUGGUCACGCGUGUCCCUCCUAAGGAGAAGACUGCGGGUUCGAGUCCCGUACUGAACG [C5G A20C C27G G67U]
QUAL: ≤
QUANTITATIVE READOUT: 0.5

BIOPOLYMER SEQUENCE: GUUCCGUUGGCGUAAUGGUAACGCGUUUCCCUCCUAAGGAGAUGACUGCGGGUUGGAGUCCCGUACGGAACG [C27U A43U C55G]
QUAL: =
QUANTITATIVE READOUT: 0.544

BIOPOLYMER SEQUENCE: GGUCCGUUGGCGUAAUGGUAACGCGUCUCCCUCCUAAGGAGAAGACUGCGGGUCCGAGUCCCGUACGGAACG [U2G U54C]
QUAL: =
QUANTITATIVE READOUT: 0.962

BIOPOLYMER SEQUENCE: GAUCCGUUGGCGUAAUGGUAACGCGUCUCCCUCCUAAGGAGAAGAUUGCGGGUUCGAGUCCCGUGCGGAACG [U2A C46U A65G]
QUAL: =
QUANTITATIVE READOUT: 0.592

BIOPOLYMER SEQUENCE: GUUCCGUUGGCGUACUGGUAACGCGUCUCCCUCCUAAGGAGACGACUCCGGGUUCGAGUCCCGUACGGAACG [A15C A43C G48C]
QUAL: =
QUANTITATIVE READOUT: 0.544

FYI, the data here is from the RNAGym collection of RNA variant scans (doi:10.1126/science.aae0568).
